Target: T1, recombinant human aggregated full-length TDP-43 (human, UniProt Q13148 1-414)
T1 construct: also called aggregated TDP-43; aggregated FL TDP-43
T1 sequence (Q13148 whole entry): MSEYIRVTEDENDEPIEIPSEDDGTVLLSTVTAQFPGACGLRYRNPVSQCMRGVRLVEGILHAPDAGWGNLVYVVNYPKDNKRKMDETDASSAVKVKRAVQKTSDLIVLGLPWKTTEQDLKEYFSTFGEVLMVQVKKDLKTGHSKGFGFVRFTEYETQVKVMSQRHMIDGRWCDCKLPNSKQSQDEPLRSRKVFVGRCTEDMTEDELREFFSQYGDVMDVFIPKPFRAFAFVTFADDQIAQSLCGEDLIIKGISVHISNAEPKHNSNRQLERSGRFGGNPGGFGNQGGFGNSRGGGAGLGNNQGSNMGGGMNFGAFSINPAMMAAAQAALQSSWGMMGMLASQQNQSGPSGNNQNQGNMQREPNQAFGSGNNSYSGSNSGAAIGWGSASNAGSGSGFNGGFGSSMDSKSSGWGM
Experiment: SPR, immobilized aggregated TDP-43
So I've got a bunch of binders here, and I need their kon values.

[
  {
    "binder": "ACI-7069-641H1-Ab2 (antibody, mouse IgG2b, V domains shown, Mouse IgG2b, kappa, from hybridoma; also called 641H1E7) VH: QVQLKESGPGLVAPSQSLSITCTVSGFSLTNYGVHWVRQPPGKGLEWLGLMWAGGSTNYNSALMSRLSISKDNSKSQVFLKMNSLQTDDTAMYYCVIYRTGFAYWGQGTLVTVSA VL: DVLMTQTPLSLPVSLGDQASISCRSSQSIVHTIGNTYLEWYLQKPGQSPKLLIYKVSNRFSGVPDRFSGSGSGTDFTLKISRVEAEDLGVYYCFQGSHVPFTFGSGTKLEIK",
    "kon": "121000 M⁻¹ s⁻¹"
  },
  {
    "binder": "ACI-7071-809D9-Ab2 (antibody, mouse IgG2b, V domains shown, Mouse IgG2b, kappa, from hybridoma; also called 809D9C2) VH: QVQLQQSGAELVRPGVSVKISCKGSGYKFTDYSMHWVKQSHTKSLEWIGVISTYYGDTTYNQKFKGKATITVDKSSSTAYMELARLTSEDSAIYYCATYGNFPASFSYWGQGTLVTVSA VL: DIVMTQAAPSIPVTPGESVSISCRSSKSLLHSNGNTYLYWFLQRPGQSPQLLIYRMSNLASGVPDRFSGSGSGTAFTLRISRVEAEDVGVYYCMQHLEYPFTFGSGTKLEIK",
    "kon": "95900 M⁻¹ s⁻¹"
  }
]

Please state, for each entry, its recorded kon.
1. 642D12B4 Fab (Fab, V domains shown, Fab fragment; also called Fab fragment of ACI-7069-642D12-Ab1) VH: EVQLQQSGAELVKPGASVRLSCTASGFNIKDPYMHWVRQRPKQGLEWIGRIDPADGNTKYDPKFQGKATLTADTSSNVAYLHLSSLTSEDTAVYYCARFYGSSHWYFDVWGAGTTVTVSS VL: DIKMTQSPSSMYASLGERVTITCKASQDIKRYLSWYQQKPWKSPKILIYYATSLADGVPSRFSGTGSGQDYSLTISSLESDDVATYYCLQQGESPYTFGGGTKLEIK
2. ACI-7069-634H10-Ab2 (antibody, mouse IgG2b, V domains shown, Mouse IgG2b, kappa, from hybridoma; also called 634H10H7) VH: EVQLQQSGAELVKPGASVRLSCTASGFNIKDTYMHWVKQRPEQGLEWIGRIDPANSNTKFDPKFQGKATITSDTSSNTAYLQLSSLTSEDTAVYYCARFYGGSHWYFDVWGAGTTVTVSS VL: DIKMTQSPSSMYASLGERVTITCKASQDIKSYLSWYQHKPWKSPKALIYYATSLADGVPSRFSGSGSGQDYSLTISSLESDDTATYYCLQQGESPYTFGGGTKLEIK
3. ACI-7069-646B7-Ab1 (antibody, mouse IgG2b, V domains shown, Mouse IgG2b, kappa, from hybridoma; also called 646B7F7) VH: QVQLKESGPGLVAPSQSLSITCTVSGFSLTNFGVHWVRQPPGKGLEWLGIMWAGGSTNYNSALMSRLSISKDNSKSQVFLKMNSLQTDDTAMYYCVIYKTGFAYWGQGTLVTVSA VL: DVLMTQTPLSLPVSLGDQASISCRSSQSIVHAIGNTYLEWYLQKPGQSPKLLIYKVSNRFSGVPDRFSGSGSGTDFTLKISRVEAEDLGVYYCFQGSHVPFTFGSGTKLEIK

["94000 M⁻¹ s⁻¹", "110000 M⁻¹ s⁻¹", "144000 M⁻¹ s⁻¹"]
